# Tested on: Plasmodium berghei
# assay_overview: Screen against P. berghei liver stage (PbLuc), transformed with Luciferase, at 2uM
# Assay type: functional, HepG2
# measurement_parameters: tested at 2 uM
About 2,700 (4%) of roughly 68,000 compounds showed an effect of 50% or more. For the sample, strong results were picked, then their nearest neighbours and some compounds at random.
attribute_measured: INHIBITION (%)

                                   compound  attribute_measured  result_value
0  Cn1cc(C2CCCN2Cc2csc(C(C)(C)C)n2)cn1 (centres undefined)          INHIBITION        -10.66
1     O=C(c1cc2c(s1)CCC2)N1CCN(c2cnccn2)CC1          INHIBITION        -32.45
2  CC(SCC(=O)N(C)CC(=O)NC1CC1)c1ccccc1F (centres undefined)          INHIBITION         -16.7
3  CNc1cc2c(nn1)CCN(C(=O)c1ccc3c(c1)CCC3)C2          INHIBITION         29.12
